Experiment: Petri-dish thin film autoxidation of arachidonic acid with thia fatty acids and sulfides (HPLC)
Conditions: ratio arachidonic acid:compound 1:1, 7 days
Method: A stock solution in dichioromethane (2 ml) containing arachidonic acid 1 (18 mg) and 3-[(3Z,6Z)-nona-3,6dienylthio]propionic acid 106 (18 mg) was prepared with lauric acid (18 mg) as an internal standard. […] After evaporation of the solvent, the residue was dissolved in the HPLC mobile phase (100 μl) and 10% of the solution was analysed by HPLC using a reverse phase column (octadecylsilane) (4.6 mm×250 mm, 3 μm) and a refractive index detector. […]
Metric: Arachidonic acid (%) recovered following autoxidation in the presence of the compound
Please respond with the number in % and leave the unit unwritten.

# example entries with known answers
CCCCC/C=C\C/C=C\C/C=C\C/C=C\CCCCSCCC(=O)O [Compound 19] ... 98
CCCCC/C=C\C/C=C\C/C=C\C/C=C\CCCCSCC(=O)O [Compound 18] ... 5
CCCCCCCCCCCCCCSCCC [Compound 111, propyltetradecyl sulfide] ... 97
CCCCC/C=C\C/C=C\C/C=C\C/C=C\CCCCSCCC [Compound 110] ... 100
CC/C=C\C/C=C\C/C=C\CCCCCCCCSCCC(=O)O [Compound 112] ... 93

// moving on: another record for Arachidonic acid (%) recovered following autoxidation in the presence of the compound
Arachidonic acid (%) recovered following autoxidation in the presence of the compound recorded for this compound, CC/C=C\C/C=C\CCSCCC(=O)O [Compound 106] , is 101

---

Assay: Petri-dish thin film autoxidation of arachidonic acid with thia fatty acids and sulfides (HPLC)
Details: ratio arachidonic acid:compound 10:1, 1 day
Doc: threshold 80% (exclusive). Items with Compound (%) recovered following autoxidation with arachidonic acid beneath it return label 1; others return label 0.

# example entries with known answers
CCCCC/C=C\C/C=C\C/C=C\C/C=C\CCCCSCCC(=O)O ... label 0
CCCCC/C=C\C/C=C\C/C=C\C/C=C\CCCCSCCC ... label 0
CC/C=C\C/C=C\C/C=C\CCCCCCCCSCCC(=O)O ... label 1

Just wondering, is Compound (%) recovered following autoxidation with arachidonic acid of CC/C=C\C/C=C\CCSCCC(=O)O below 80%? label 0

---

Test: Petri-dish thin film autoxidation of arachidonic acid with thia fatty acids and sulfides (HPLC)
Details: ratio arachidonic acid:compound 1:1, 7 days
Metric: Compound (%) recovered following autoxidation with arachidonic acid
Please respond with the number in % and leave the unit unwritten.

# example entries with known answers
CC/C=C\C/C=C\C/C=C\CCCCCCCCSCCC(=O)O [Compound 112] ... 86
CCCCCCCCCCCCCCSCC(=O)O [Compound 109, 2-Tetradecylthioacetic acid] ... 16
CCCCCCCCCCCCCCSCCC(=O)O [Compound 108] ... 37

Compound (%) recovered following autoxidation with arachidonic acid recorded for this molecule, CC/C=C\C/C=C\CCSCCC(=O)O [Compound 106] , is 98

Compound (%) recovered following autoxidation with arachidonic acid recorded for this molecule, CCCCC/C=C\C/C=C\C/C=C\C/C=C\CCCCSCCC(=O)O [Compound 19] , is 99

Compound (%) recovered following autoxidation with arachidonic acid recorded for this molecule, CCCCCCCCCCCCCCSCCC [Compound 111, propyltetradecyl sulfide] , is 90

Compound (%) recovered following autoxidation with arachidonic acid recorded for this molecule, CCCCC/C=C\C/C=C\C/C=C\C/C=C\CCCCSCCC [Compound 110] , is 100

---

Experiment: Petri-dish thin film autoxidation of arachidonic acid with thia fatty acids and sulfides (HPLC)
Details: ratio arachidonic acid:compound 10:1, 2 days
This section presents compounds with their documented Compound (%) recovered following autoxidation with arachidonic acid values.
Please respond with the number in % and leave the unit unwritten.

Compound (%) recovered following autoxidation with arachidonic acid recorded for this compound, CCCCC/C=C\C/C=C\C/C=C\C/C=C\CCCCSCCC [Compound 110] , is 22

Compound (%) recovered following autoxidation with arachidonic acid recorded for this compound, CCCCC/C=C\C/C=C\C/C=C\C/C=C\CCCCSCCC(=O)O [Compound 19] , is 87

Compound (%) recovered following autoxidation with arachidonic acid recorded for this compound, CCCCCCCCCCCCCCSCCC [Compound 111, propyltetradecyl sulfide] , is 63

Compound (%) recovered following autoxidation with arachidonic acid recorded for this compound, CC/C=C\C/C=C\CCSCCC(=O)O [Compound 106] , is 84
